System: Acinetobacter baumannii (Egypt, V9)
Procedure details: MIC-assay, Mueller-Hinton broth with G-block alginate, 384-well, OD600
Condition context: Table 9, G-block (OligoCF-5/20) 10%
# MIC listing for each entry below

// below: answered compounds
Compound	MIC
O=C(O)c1cn(C2CC2)c2cc(N3CCNCC3)c(F)cc2c1=O [Ciprofloxacin]	8 µg/mL
CN(C)[C@@H]1C(O)=C(C(N)=O)C(=O)[C@@]2(O)C(O)=C3C(=O)c4c(O)cccc4[C@@](C)(O)[C@H]3[C@H](O)[C@@H]12 [Oxytetracycline]	0.5 µg/mL
CC[C@H]1OC(=O)[C@H](C)[C@@H](O[C@H]2C[C@@](C)(OC)[C@@H](O)[C@H](C)O2)[C@H](C)[C@@H](O[C@@H]2O[C@H](C)C[C@H](N(C)C)[C@H]2O)[C@](C)(O)C[C@@H](C)CN(C)[C@H](C)[C@@H](O)[C@]1(C)O [Azithromycin]	< 1 µg/mL
C[C@H]1[C@H](NC(=O)/C(=N\OC(C)(C)C(=O)O)c2csc(N)n2)C(=O)N1S(=O)(=O)O [Aztreonam]	> 16 µg/mL
C[C@@H](O)[C@H]1C(=O)N2C(C(=O)O)=C(SCCN=CN)C[C@H]12 [Imipenem]	< 2 µg/mL

Lab note: next compound to report on.
Prompt: Query: MIC; subject: CC(C)(O/N=C(\C(=O)N[C@@H]1C(=O)N2C(C(=O)[O-])=C(C[n+]3ccccc3)CS[C@H]12)c1csc(N)n1)C(=O)O [Ceftazidime]
Completion: > 16 µg/mL

----------
# MIC listing for each entry below
Tested on: V22 6056 Acinetobacter
Procedure details: MIC assay, CAMHB with alginate oligomer, no visible growth
Format: cell-based, Acinetobacter lwoffii
Condition context: Table 5; V22 MDR Acin. lwoff; OligoCF-5/20 +6% G
Marks after values point to notes of the source that are not given here.

1. C[C@H]1[C@H](NC(=O)/C(=N\OC(C)(C)C(=O)O)c2csc(N)n2)C(=O)N1S(=O)(=O)O 64^† μg/ml
2. CC[C@H]1OC(=O)[C@H](C)[C@@H](O[C@H]2C[C@@](C)(OC)[C@@H](O)[C@H](C)O2)[C@H](C)[C@@H](O[C@@H]2O[C@H](C)C[C@H](N(C)C)[C@H]2O)[C@](C)(O)C[C@@H](C)C(=O)[C@H](C)[C@@H](O)[C@]1(C)O <0.5 µg/mL

Lab note: next compound to report on.
Prompt: Value wanted: MIC (V22 6056 Acinetobacter) of entry `CC1(C)C[C@@H]1C(=O)N/C(=C\CCCCSC[C@H](N)C(=O)O)C(=O)O`
Completion: 8 µg/mL

----------
# MIC listing for each entry below
Tested on: V10 (Egypt) Acinetobacter lwoffii
Procedure details: MIC assay, CAMHB with alginate oligomer, no visible growth
Type: cell-based
Condition context: Acinetobacter lwoffii; Table 5; V10 MDR Acin. lwoff; OligoCF-5/20 0G; read-out: MIC

// below: answered molecules
1. CC[C@H]1OC(=O)[C@H](C)[C@@H](O[C@H]2C[C@@](C)(OC)[C@@H](O)[C@H](C)O2)[C@H](C)[C@@H](O[C@@H]2O[C@H](C)C[C@H](N(C)C)[C@H]2O)[C@](C)(OC)C[C@@H](C)C(=O)[C@H](C)[C@@H](O)[C@]1(C)O < 0.5 µg/mL
2. CC[C@H]1OC(=O)[C@H](C)[C@@H](O[C@H]2C[C@@](C)(OC)[C@@H](O)[C@H](C)O2)[C@H](C)[C@@H](O[C@@H]2O[C@H](C)C[C@H](N(C)C)[C@H]2O)[C@](C)(O)C[C@@H](C)CN(C)[C@H](C)[C@@H](O)[C@]1(C)O < 0.25 µg/mL

Lab note: next molecule to report on.
Prompt: Value wanted: MIC (V10 (Egypt) Acinetobacter lwoffii) of entry `CC[C@H]1OC(=O)[C@H](C)[C@@H](O[C@H]2C[C@@](C)(OC)[C@@H](O)[C@H](C)O2)[C@H](C)[C@@H](O[C@@H]2O[C@H](C)C[C@H](N(C)C)[C@H]2O)[C@](C)(O)C[C@@H](C)C(=O)[C@H](C)[C@@H](O)[C@]1(C)O`
Completion: < 0.5 µg/mL
